The reported measurements were obtained from ChEMBL document CHEMBL1132588.

biological target: Adenosine receptor A2a (Rattus norvegicus); test: Displacement of specific [3H]-CGS- 21680 binding to Adenosine A2A receptor in rat striatal membranes; assay type: cell membranes; set-up: concentration or dose not given beside the values; settings: Membrane, concentration not given here
Measurement Name: inhibition (%)
Numeric answer only, unit % assumed.

See these solved cases before continuing.
{"Smiles": "CCCOC(=O)c1c(-c2ccc(F)cc2)nc(CC)c(C(=O)SCC)c1CCC", "Measured On": "Adenosine receptor A2a (Rattus norvegicus)", "Readout Value": 50}
{"Smiles": "CCCc1c(C(=O)SCC)c(CCSC(C)=O)nc(-c2ccccc2)c1C(=O)OCC", "Measured On": "Adenosine receptor A2a (Rattus norvegicus)", "Readout Value": 30}

Prompt: Param request: inhibition | system Adenosine receptor A2a (Rattus norvegicus) | item CCCOC(=O)c1c(-c2ccccc2)nc(CC)c(C(=O)SCC)c1CCSC(C)=O
Completion: 28

Prompt: Look up Adenosine receptor A2a (Rattus norvegicus) data: inhibition of CCCOC(=O)c1c(-c2ccccc2)nc(CC)c2c1CCOC2=O , then report it.
Completion: 20

----------
Molecular target: Adenosine receptor A3 (Homo sapiens) (UniProt P0DMS8)
Sequence (whole entry): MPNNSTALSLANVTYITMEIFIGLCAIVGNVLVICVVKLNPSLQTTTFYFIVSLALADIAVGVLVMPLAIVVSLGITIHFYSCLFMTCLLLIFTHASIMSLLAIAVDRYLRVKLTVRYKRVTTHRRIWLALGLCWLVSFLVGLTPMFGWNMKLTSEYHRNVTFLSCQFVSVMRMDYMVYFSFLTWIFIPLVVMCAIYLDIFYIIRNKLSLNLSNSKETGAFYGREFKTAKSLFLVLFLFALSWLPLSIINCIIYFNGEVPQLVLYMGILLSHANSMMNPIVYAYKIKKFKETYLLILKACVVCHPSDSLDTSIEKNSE
Test: Displacement of specific [125 I]AB-MECA binding at human Adenosine A3 receptor expressed in HEK cells
Assay type: cell-based
Settings: HEK293
Measurement Name: pKi
Give the value as a plain number.

Examples with their reported pKi follow.
{"Smiles": "CCOC(=O)c1c(C)nc(-c2ccccc2)c(C(=O)OCC)c1CC", "Measured On": "Adenosine receptor A3 (Homo sapiens) (UniProt P0DMS8)", "pKi": 6.75}
{"Smiles": "CCCOC(=O)c1c(-c2ccccc2)nc(CC)c(C(=O)SCC)c1CCCF", "Measured On": "Adenosine receptor A3 (Homo sapiens) (UniProt P0DMS8)", "pKi": 7.22}
{"Smiles": "CCSC(=O)c1c(C)nc(-c2ccccc2)c(C(=O)OCc2ccccc2)c1CC", "Measured On": "Adenosine receptor A3 (Homo sapiens) (UniProt P0DMS8)", "pKi": 5.58}

Prompt: Specify reported pKi for the compound shown: CCCCc1nc(-c2ccccc2)c(C(=O)OCC)c(CC)c1C(=O)SCC
Completion: 7.46

Prompt: Tell me pKi reported for CCCOC(=O)c1c(-c2ccc(F)cc2)nc(CC)c(C(=O)SCC)c1CCC
Completion: 7.51

----------
Target: Adenosine receptor A3 (Homo sapiens) (UniProt P0DMS8)
Sequence (whole entry): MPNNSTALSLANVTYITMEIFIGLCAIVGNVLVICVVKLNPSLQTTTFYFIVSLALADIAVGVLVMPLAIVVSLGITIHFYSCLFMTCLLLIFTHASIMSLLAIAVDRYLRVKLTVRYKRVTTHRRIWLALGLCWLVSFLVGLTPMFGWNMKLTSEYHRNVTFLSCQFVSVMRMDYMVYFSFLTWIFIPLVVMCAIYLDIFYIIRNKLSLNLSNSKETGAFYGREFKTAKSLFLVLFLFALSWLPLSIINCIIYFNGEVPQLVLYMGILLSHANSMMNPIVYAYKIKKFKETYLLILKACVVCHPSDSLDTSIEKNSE
Assay: Displacement of specific [125 I]AB-MECA binding at human Adenosine A3 receptor expressed in HEK cells
Type: cell-based
Details: HEK293
Items are presented alongside their recorded pKi.
# print the numeric value only

Reference set, count: 2
{"Smiles": "CCCOC(=O)c1c(-c2ccccc2)nc(CC)c(C(=O)SCC(F)(F)F)c1CCC", "pKi": 7.74}
{"Smiles": "CCCOC(=O)c1c(-c2cccc(Cl)c2)nc(CC)c(C(=O)SCCC)c1CC", "pKi": 8.1}

Prompt: State, in one line, measured pKi of CCCOC(=O)c1c(-c2ccccc2F)nc(CC)c(C(=O)SCC)c1CCC
Completion: 7.64

Prompt: Give pKi for the following compound: CCCOC(=O)c1c(-c2ccccc2)nc(CC)c(C(=O)SCCO)c1CCC
Completion: 7.29

Prompt: Let me know recorded pKi for CCCc1c(C(=O)SCC)c(C)nc(-c2ccccc2)c1C(=O)OCC , thanks.
Completion: 6.71

----------
# Lookup of reported pKi keyed by entry
Target: UniProt:P0DMS8
Sequence (whole entry): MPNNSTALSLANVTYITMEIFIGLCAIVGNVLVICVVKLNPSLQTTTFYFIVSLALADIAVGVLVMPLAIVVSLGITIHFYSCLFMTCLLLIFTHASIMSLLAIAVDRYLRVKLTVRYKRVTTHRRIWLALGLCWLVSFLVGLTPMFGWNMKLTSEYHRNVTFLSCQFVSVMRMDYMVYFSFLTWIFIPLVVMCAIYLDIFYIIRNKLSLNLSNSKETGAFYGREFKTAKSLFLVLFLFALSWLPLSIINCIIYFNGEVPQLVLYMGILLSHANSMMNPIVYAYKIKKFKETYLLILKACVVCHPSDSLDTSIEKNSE
Assay: Displacement of specific [125 I]AB-MECA binding at human Adenosine A3 receptor expressed in HEK cells
Format: cell-based
Settings: HEK293

Check out these entries, answers already filled in.
{"Smiles": "CCCc1c(C(=O)SCC)c(CC)nc(-c2ccccc2)c1C(=O)OCCCF", "Readout Value": 8.01}
{"Smiles": "CCOC(=O)c1c(-c2ccccc2)nc(CCOC)c(C(=O)SCC)c1CC", "Readout Value": 7.77}
{"Smiles": "CCOC(=O)c1c(-c2ccccc2)nc(C2CCC2)c(C(=O)SCC)c1CC", "Readout Value": 6.84}
{"Smiles": "CCCOC(=O)c1c(CCC)c(C(=O)SCC)c(CC)[n+](C)c1-c1ccccc1", "Readout Value": 5.59}
{"Smiles": "CCCSC(=O)c1c(CC)nc(-c2ccccc2)c(C(=O)OCC)c1CC", "Readout Value": 7.8}

Prompt: Determine from records and report pKi for CCCOC(=O)c1c(-c2ccccc2)nc(CCOCc2ccccc2)c(C(=O)SCC)c1CCC
Completion: 6.96

Prompt: # return recorded pKi for entry CCCc1nc(-c2ccccc2)c(C(=O)OCC)c(CC)c1C(=O)SCC
Completion: 7.48

Prompt: Specify measured pKi for CCCOC(=O)c1c(-c2ccccc2)nc(CC)c(C(=O)SCCF)c1CCC .
Completion: 7.26

Prompt: Write down pKi measured for item CCOC(=O)c1c(-c2cccc(Cl)c2)nc(CC)c(C(=O)SCC)c1CC
Completion: 7.87

Prompt: Read the entry CCOC(=O)c1c(-c2ccccc2)nc(C)c(C(=O)SCCOC)c1CC and write its reported pKi.
Completion: 6.78

----------
Each entry below lists one item and its recorded inhibition value.
target: Adenosine receptor A3 (Homo sapiens) (UniProt P0DMS8); assay: Displacement of specific [125 I]AB-MECA binding at human Adenosine A3 receptor expressed in HEK cells; assay type: cell-based; conditions: HEK293; concentration not given here
All answers are understood in %, so give the number only.

{"Smiles": "CCCOC(=O)c1c(-c2ccccc2)nc(CCO)c(C(=O)SCC)c1CCC", "Measured On": "Adenosine receptor A3 (Homo sapiens) (UniProt P0DMS8)", "Units": "%", "Readout Value": 16}

Turning now to a further record.
Prompt: Jot down inhibition (Adenosine receptor A3 (Homo sapiens) (UniProt P0DMS8)) of CCCOC(=O)c1c(-c2ccccc2)nc(CCF)c(C(=O)SCC)c1CCC .
Completion: 15

----------
target: Adenosine receptor A3 (Homo sapiens) (UniProt P0DMS8); assay: Displacement of specific [125 I]AB-MECA binding at human Adenosine A3 receptor expressed in HEK cells; format: cell-based; settings: HEK293
Readings of pKi for the listed molecules
Response field accepts a number only; no unit should be typed.

Before answering, review these 5 worked examples.
{"Smiles": "CCCOC(=O)c1c(-c2ccccc2)nc(CC)c(C(=O)SCC)c1CCSC(C)=O", "Measured On": "Adenosine receptor A3 (Homo sapiens) (UniProt P0DMS8)", "pKi": 6.91}
{"Smiles": "CCCOC(=O)c1c(-c2ccccc2)nc(CC)c(C(=O)SCC)c1CCO", "Measured On": "Adenosine receptor A3 (Homo sapiens) (UniProt P0DMS8)", "pKi": 6.58}
{"Smiles": "CCOC(=O)c1c(C)nc(C2CCCC2)c(C(=O)OCc2ccccc2)c1C#Cc1ccccc1", "Measured On": "Adenosine receptor A3 (Homo sapiens) (UniProt P0DMS8)", "pKi": 5.41}
{"Smiles": "CCCOC(=O)c1c(-c2ccccc2)nc(CC)c2c1CCSC2=O", "Measured On": "Adenosine receptor A3 (Homo sapiens) (UniProt P0DMS8)", "pKi": 7.6}
{"Smiles": "CCCc1c(C(=O)SCC)c(CCSC(C)=O)nc(-c2ccccc2)c1C(=O)OCC", "Measured On": "Adenosine receptor A3 (Homo sapiens) (UniProt P0DMS8)", "pKi": 6.71}

Prompt: Determine from records and report pKi for CCOC(=O)c1c(-c2ccccc2)nc(CC)c(C(=O)SCC)c1CC
Completion: 7.67

Prompt: Respond only with pKi recorded for CCOC(=O)c1c(C)nc(-c2ccccc2)c(C(=O)OCC)c1C
Completion: 5.35
